Value source: paper PMC7819943

Assay target: OsWRKY34 (Oryza sativa, UniProt Q0JBA9 1-250)
Sequence (Q0JBA9 entry or part of it): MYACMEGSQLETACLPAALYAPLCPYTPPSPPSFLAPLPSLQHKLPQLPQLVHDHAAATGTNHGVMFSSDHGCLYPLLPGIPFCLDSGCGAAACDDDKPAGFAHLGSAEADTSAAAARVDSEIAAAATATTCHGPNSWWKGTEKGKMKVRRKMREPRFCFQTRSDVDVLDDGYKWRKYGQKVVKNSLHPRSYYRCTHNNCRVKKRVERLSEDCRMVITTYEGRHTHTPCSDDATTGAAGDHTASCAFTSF
Test: protein-binding microarray (RPBM); PBS, 2% BSA, 51.3 ng/ul salmon testes DNA, 50 uM zinc acetate, 200 nM TF, 25 C, 1 h; high values mean tight binding
Test conditions: protein: recombinant; tags: N-terminal polyhistidine and DsRed monomer fusion (pET32a); label: CyDye5-dUTP incorporated in the synthesized complementary strand; 3' TTTTT single-stranded linker to array surface; dsDNA, one strand shown
Over roughly 68,000 sequences, “fluorescence intensity (a.u.)” has its median near 9,100; the highest 2% begin near 16,000. The list comes from a sample in which the highest values are over-represented; it also holds close analogues and randomly drawn sequences.
Measure name: binding signal

Would you please look over these solved cases?
[[record]]
item_sequence = "GCTTTGTTCTGATTCCTTCACAGTTATTTGATATTTTCCTCGGAGTCACCTAGTGCAG"
measure_name = "binding signal"
recorded_value = "8710 fluorescence intensity (a.u.)"

[[record]]
item_sequence = "AATATTTTTTTGAGGTTTTTTGTTGCGTTTAAAATTCAAACGGAGTCACCTAGTGCAG"
measure_name = "binding signal"
recorded_value = "8110 fluorescence intensity (a.u.)"

[[record]]
item_sequence = "CTGCTGCAGTTGAGCTGTACTGTTTTGGTGGGTTGGTTTTCGGAGTCACCTAGTGCAG"
measure_name = "binding signal"
recorded_value = "13900 fluorescence intensity (a.u.)"


Next item in the queue.
Answer with the recorded binding signal for the sequence listed here: TCTTCGGCCTCTCCGCCTCCGCCATTGACAGCGTTGACCACGGAGTCACCTAGTGCAG 18300 fluorescence intensity (a.u.)

* * *

Assay target: OsWRKY34 (Oryza sativa, UniProt Q0JBA9 1-250)
Test: protein-binding microarray (RPBM); PBS, 2% BSA, 51.3 ng/ul salmon testes DNA, 50 uM zinc acetate, 200 nM TF, 25 C, 1 h; high values mean tight binding
Test conditions: protein: recombinant; tags: N-terminal polyhistidine and DsRed monomer fusion (pET32a); label: CyDye5-dUTP incorporated in the synthesized complementary strand; 3' TTTTT single-stranded linker to array surface; dsDNA, one strand shown
Whole data set: some 68,000 sequences, median “fluorescence intensity (a.u.)” near 9,100, cut for the highest 2% near 16,000. The full list was thinned out, with the highest values kept by preference.
Readings of binding signal for the listed sequences

Illustrative cases are given below, each with its answer.
[[record]]
item_sequence = "TTGCTTTTGTGTTCGGTTTTTCTATTTTTTCTATTTTCTTCGGAGTCACCTAGTGCAG"
recorded_value = "13700 fluorescence intensity (a.u.)"

[[record]]
item_sequence = "GCTGTTTGACTTTTTCTTAATTAAGCTTCTTTATGTTTGACGGAGTCACCTAGTGCAG"
recorded_value = "19700 fluorescence intensity (a.u.)"

[[record]]
item_sequence = "TATTTCGATTTGATGGCTTCCTGTTGCTTTTCCTGTTAATCGGAGTCACCTAGTGCAG"
recorded_value = "14000 fluorescence intensity (a.u.)"

[[record]]
item_sequence = "CTAGATTCGTTTTTTATGGGGTGGAGGGAGTACATGCCTTCGGAGTCACCTAGTGCAG"
recorded_value = "12800 fluorescence intensity (a.u.)"


Provide only the value of recorded binding signal for CACCTTTTTTTAATTTTTTGGTTTCCAATTTTTATTTTTTCGGAGTCACCTAGTGCAG 10900 fluorescence intensity (a.u.)

Read off the recorded binding signal for GATGGCTTCGATTTGCTGTGTTACTTCTTTTTTCTAGTTTCGGAGTCACCTAGTGCAG 16900 fluorescence intensity (a.u.)

Give the measured binding signal for TGTTCTGCCGGGGTTGTTGCTTACTGATGCAAAACTCTTTCGGAGTCACCTAGTGCAG 9240 fluorescence intensity (a.u.)

Hello, please tell me recorded binding signal for this one: AGGGAGCCTATTTTAATGTATGACACCGTTGACTTTTTTGCGGAGTCACCTAGTGCAG 19200 fluorescence intensity (a.u.)

# return recorded binding signal for entry CCTGTTGCTGCTCTGTGCCTCTGCTCTGCTCCTTGACTTCCGGAGTCACCTAGTGCAG 11300 fluorescence intensity (a.u.)

In one line, give reported binding signal of the entry ATATGGCATTGTTTCTGTGTTATTCAGGCGCACCTTTAAACGGAGTCACCTAGTGCAG . 10100 fluorescence intensity (a.u.)

Kindly indicate its recorded binding signal. Item: CCCACCATTTTATATTATAAGCTGTTTGACTTTTTCTTAACGGAGTCACCTAGTGCAG 13100 fluorescence intensity (a.u.)

Fill in binding signal for record CCTCATCCGCTGCTCTGCTCCCACCATTGCTGCTCTCTCTCGGAGTCACCTAGTGCAG 17700 fluorescence intensity (a.u.)

Given the sequence CTTTAATTTTAATTAGAGTTTCTTGCATCGGTTTCCAATGCGGAGTCACCTAGTGCAG , write its reported binding signal. 27700 fluorescence intensity (a.u.)

* * *

Assay target: OsWRKY34 (Oryza sativa, UniProt Q0JBA9 1-250)
Test: protein-binding microarray (RPBM); PBS, 2% BSA, 51.3 ng/ul salmon testes DNA, 50 uM zinc acetate, 200 nM TF, 25 C, 1 h; high values mean tight binding
Test conditions: protein: recombinant; tags: N-terminal polyhistidine and DsRed monomer fusion (pET32a); label: CyDye5-dUTP incorporated in the synthesized complementary strand; 3' TTTTT single-stranded linker to array surface; dsDNA, one strand shown
In all, about 68,000 sequences were measured (“fluorescence intensity (a.u.)”: median about 9,100, highest 2% from about 16,000 on). Many of the other results were omitted from the sample, so the highest values are more common in it than they were.
Measure name: binding signal

[[record]]
item_sequence = "ACTTTTTAAAACATGTTTGACCGTTCATCTTATTCAAAAACGGAGTCACCTAGTGCAG"
measure_name = "binding signal"
recorded_value = "8410 fluorescence intensity (a.u.)"

[[record]]
item_sequence = "CCGCCTCCTTTGACCCTACCAAAATTTACCGTTGACCATGCGGAGTCACCTAGTGCAG"
measure_name = "binding signal"
recorded_value = "20000 fluorescence intensity (a.u.)"

[[record]]
item_sequence = "AGACCAAGCCATATCACCTTATGTAATTTCTTTATGTGCTCGGAGTCACCTAGTGCAG"
measure_name = "binding signal"
recorded_value = "9010 fluorescence intensity (a.u.)"

[[record]]
item_sequence = "AAACCAACCCCACCCAACCCACGCGAGAACCGTGGACCACCGGAGTCACCTAGTGCAG"
measure_name = "binding signal"
recorded_value = "9500 fluorescence intensity (a.u.)"

[[record]]
item_sequence = "ATGACGCCGTTGACTTTTTGTCCAACGACCATTCATTTTACGGAGTCACCTAGTGCAG"
measure_name = "binding signal"
recorded_value = "31300 fluorescence intensity (a.u.)"


Continue with the next sequence.
Identify measured binding signal associated with GACCACTAGCAGCCTCGTAACGTTTGCCTCATTTCATCAGCGGAGTCACCTAGTGCAG 10500 fluorescence intensity (a.u.)

* * *

binding signal reference
Assay target: OsWRKY34 (Oryza sativa, UniProt Q0JBA9 1-250)
Test: protein-binding microarray (RPBM); PBS, 2% BSA, 51.3 ng/ul salmon testes DNA, 50 uM zinc acetate, 200 nM TF, 25 C, 1 h; high values mean tight binding
Test conditions: protein: recombinant; tags: N-terminal polyhistidine and DsRed monomer fusion (pET32a); label: CyDye5-dUTP incorporated in the synthesized complementary strand; 3' TTTTT single-stranded linker to array surface; dsDNA, one strand shown
The full ranking holds about 68,000 sequences; the median of “fluorescence intensity (a.u.)” is about 9,100, and the highest 2% start at about 16,000. For the sample, the highest values were picked, then their nearest neighbours and some sequences at random.

// known answers, use as guide
[[record]]
item_sequence = "AATCTCGTTCCTTGCTGTTGTGACTAGTATCGTTGCCTACCGGAGTCACCTAGTGCAG"
recorded_value = "10500 fluorescence intensity (a.u.)"

[[record]]
item_sequence = "TATTTTCCGTGTGTACCGTTCCGGTTATCAATACCAGCGCCGGAGTCACCTAGTGCAG"
recorded_value = "8380 fluorescence intensity (a.u.)"

[[record]]
item_sequence = "GGGGAGGAGGAGGAGGAGGGTAGGGATGGGGAAGAGGAGTCGGAGTCACCTAGTGCAG"
recorded_value = "8020 fluorescence intensity (a.u.)"

[[record]]
item_sequence = "AAAATTTTTCTATTCAATTCTTTTCGTTTTTGGACCTCTCCGGAGTCACCTAGTGCAG"
recorded_value = "8660 fluorescence intensity (a.u.)"

[[record]]
item_sequence = "ATATATGTTCTCTTAGTGTCTTTATTTTTAATATTTTTAACGGAGTCACCTAGTGCAG"
recorded_value = "8530 fluorescence intensity (a.u.)"


Specify binding signal for CGTTGGAACGTGCGGGTGTGGGGAAACTGAGGGTGAGGATCGGAGTCACCTAGTGCAG and stop. 8600 fluorescence intensity (a.u.)

Annotate the sequence GTGGTGGAGGAGGAGGAGGAGGATGAGGAGGAAGCGGCTGCGGAGTCACCTAGTGCAG with its measured binding signal. 8570 fluorescence intensity (a.u.)

Entry GTGGGCAGCGGCGGCGGCCGGTGGGAGGAGGGGAAGCATGCGGAGTCACCTAGTGCAG needs its binding signal filled in; supply it. 8380 fluorescence intensity (a.u.)
